The reported measurements were obtained from patent US11548849B2.

- assay-target: hKv7.2/hKv7.3 (Homo sapiens, UniProt O43525+O43526)
- Construct: P2A self-cleaving peptide (between Kv7.3 and Kv7.2; the remnant would stay on the upstream protein) (C)
- procedure-text: Thallium influx assay for potassium channel activation
- test-conditions: HEK-hKv7.2/hKv7.3 cells; FLIPR Potassium Assay kit; AUC readout normalized to a reference compound
outcome-measure: EC50 (nM)
Form entry: value (nM) — number only.

// worked examples, EC50 included
| molecule | outcome-measure | observed |
| --- | --- | --- |
| CC(C)(C)[C@@H](O)CC(=O)N[C@@H](COC(F)(F)F)c1cccc(OC(F)F)c1 [Example 18] | EC50 | 950 |
| CC(O)(CC(=O)N[C@@H](COC(F)F)c1cccc(OC(F)(F)F)c1)C1(F)CC1 (single isomer, unassigned) [Example 10a] | EC50 | 660 |
| O=C(CC(O)C1(C(F)(F)F)CC1)N[C@@H](COC(F)F)c1cccc(OC(F)F)c1 (single isomer, unassigned) [Example 3b] | EC50 | 2400 |
| CC(C)CC(C)(O)CC(=O)N[C@@H](COC(F)F)c1cccc(OC(F)F)c1 (single isomer, unassigned) [Example 13b] | EC50 | 360 |
| O=C(CC(O)C1CC(F)(F)C1)N[C@@H](COC(F)F)c1cccc(OC(F)(F)F)c1 (single isomer, unassigned) [Example 6b] | EC50 | 1100 |

Sample CCOC[C@H](NC(=O)CC(O)C(C)(C)C)c1cccc(OC(F)(F)F)c1 (single isomer, unassigned) [Example 2a] — what was its EC50?
10000

Try this molecule next: CCC1(C(O)CC(=O)N[C@@H](COC(F)F)c2cccc(OC(F)F)c2)CC1 (single isomer, unassigned) [Example 8a]
4800
